System: Female CD1 mice
Test: Effect on energy expenditure of mice (oxygen consumption, oral dosing)
Assay type: in vivo
Conditions: p.o. in water, 0-3h after dosing, percentage of the rate of energy expenditure of the mice dosed with water, dose differs per compound (Dose mg/kg p.o.)
Structures can show the parent of a compound that is named as a salt.
endpoint_label: Mean Energy Expenditure (0-3h) (percentage)
Reply with just the number (in percentage).

molecule | endpoint_label | assay_result
C[C@H](Cc1ccc(OCCN)cc1)N(C[C@H](O)COc1ccccc1)C[C@H](O)c1ccccc1 [Example 20, dihydrochloride, hydrate] | Mean Energy Expenditure (0-3h) | 146
CCOC(=O)COc1ccc(C[C@@H](C)N(C[C@H](O)COc2ccccc2)C[C@H](O)c2ccccc2)cc1 [Example 15, hydrochloride] | Mean Energy Expenditure (0-3h) | 144
COC(=O)c1ccc(C[C@@H](C)N(C[C@@H](O)COc2ccccc2)C[C@H](O)c2ccccc2)cc1 [Example 5, hydrochloride] | Mean Energy Expenditure (0-3h) | 136
CNC(=O)c1ccc(C[C@@H](C)N(C[C@H](O)COc2ccccc2)C[C@H](O)COc2ccccc2)cc1 [Example 3] | Mean Energy Expenditure (0-3h) | 133
COC(=O)COc1ccc(CC(C)N(CC(O)COc2ccc(CC(N)=O)cc2)CC(O)c2cccc(Cl)c2)cc1 (stereo not drawn) [Example 11, hydrochloride] | Mean Energy Expenditure (0-3h) | 120

Proceed to the following item.
Please state recorded Mean Energy Expenditure (0-3h) (tested on Female CD1 mice) of COC(=O)c1ccc(C[C@@H](C)N(CC(O)c2cc(Cl)c(N)c(Cl)c2)C[C@H](O)COc2ccccc2)cc1 (stereo partly drawn) [Example 10]
121

---

Tested on: Female CD1 mice
Experiment: Effect on energy expenditure of mice (oxygen consumption, oral dosing)
Type: in vivo
Details: p.o. in water, 0-3h after dosing, percentage of the rate of energy expenditure of the mice dosed with water, dose differs per compound (Dose mg/kg p.o.)
Where a name gives a salt, the structure may show the parent alone.
endpoint_label: Mean Energy Expenditure (0-3h)
Please format your answer as a value with the unit trailing.

Past entries and their recorded results:
compound | assay_result
C[C@H](Cc1ccc(OCC(N)=O)cc1)N(C[C@H](O)COc1ccccc1)C[C@H](O)COc1ccccc1 [Example 14, hydrochloride] | 140 percentage
Br.C[C@H](CCc1ccc(C(N)=O)cc1)N(C[C@H](O)COc1ccccc1)C[C@H](O)COc1ccccc1.O.O | 103 percentage
C[C@H](CCc1ccc(C(N)=O)cc1)N(C[C@H](O)COc1ccccc1)C[C@H](O)c1ccccc1 | 111 percentage
COC(=O)c1ccc(C[C@@H](C)N(C[C@H](O)COc2ccccc2)C[C@H](O)COc2ccccc2)cc1 | 132 percentage
CNC(=O)c1ccc(C[C@@H](C)N(C[C@H](O)COc2ccccc2)C[C@H](O)c2ccccc2)cc1 | 126 percentage
COC(=O)c1ccc(C[C@@H](C)N(C[C@H](O)COc2ccccc2)C[C@H](O)c2ccccc2)cc1 [Example 4, hydrochloride, monohydrate] | 145 percentage

Attention now shifts to the item below.
For the compound CNC(=O)c1ccc(C[C@@H](C)N(C[C@@H](O)COc2ccccc2)C[C@H](O)c2ccccc2)cc1 , what Mean Energy Expenditure (0-3h) is on record?
119 percentage

---

Test system: Male Sprague-Dawley rats
Assay: Effect on energy expenditure of rats (oxygen consumption, oral dosing)
Type: in vivo
Conditions: deprived of food, p.o. in water, 0-3h after dosing, percentage of the rate of energy expenditure of the rats dosed with water, dose differs per compound (Dose mg/kg p.o.)
Where a name gives a salt, the structure may show the parent alone.
endpoint_label: Mean Energy Expenditure (0-3h)
Dear colleague, please send the value followed by its unit.

molecule | measured_on | Mean Energy Expenditure (0-3h)
C[C@H](COc1ccc(OCC(N)=O)cc1)N(C[C@H](O)COc1ccccc1)C[C@H](O)c1ccccc1 [Example 25, hydrochloride] | Male Sprague-Dawley rats | 126 percentage
C[C@H](Cc1ccc(OCC(N)=O)cc1)N(C[C@H](O)COc1ccccc1)C[C@H](O)COc1ccccc1 [Example 14, hydrochloride] | Male Sprague-Dawley rats | 127 percentage

Mean Energy Expenditure (0-3h) lookup needed for C[C@H](Cc1ccc(OCCO)cc1)N(C[C@H](O)COc1ccccc1)C[C@H](O)c1ccccc1 [Example 22, hydrochloride, hemihydrate] , thanks.
120 percentage

All values here come from patent EP0170121A1.
